# Test system: Vero E6 infected with SARS-CoV-2
# ASSAY TEXT: morphology score (similarity to uninfected cells); higher = more like uninfected cells
# STUDY CONDITIONS: 24 h
Definition: the class of an entry is the range in lower bin (below -0.03), middle bin (-0.03 to below 0.1), upper bin (0.1 or more) that contains its morphology score.

# count of solved cases: 10
>>> category("CC(C)NCC(O)COc1cccc2ccccc12 (centres undefined) [propranolol] (10 µM)")
"upper bin"
>>> category("CC(C)=CCC[C@](C)(O)[C@H]1CC[C@]2(C)[C@@H]1[C@H](O)C[C@@H]1[C@@]3(C)CC[C@H](O)C(C)(C)[C@@H]3[C@@H](O)C[C@]12C [hemomex-s] (10 µM)")
"upper bin"
>>> category("CCCCNNC(=O)c1ccc(Br)cc1 (0.833333 µM)")
"lower bin"
>>> category("O=C1c2ccccc2-c2c(NCCc3ccccc3)c(=O)[nH]c3cccc1c23 (10 µM)")
"middle bin"
>>> category("CCS(=O)(=O)N(C)[C@@H]1c2cc(C#N)ccc2OC(C)(C)[C@H]1O.CCS(=O)(=O)N(C)[C@H]1c2cc(C#N)ccc2OC(C)(C)[C@@H]1O (racemic) [chromanol-(+/-)] (10 µM)")
"upper bin"
>>> category("O=[N+]([O-])c1cncn1CCN1CCOCC1 [nimorazole] (10 µM)")
"middle bin"
>>> category("CC1(C)Oc2ccc(C#N)cc2[C@@H](N2CCCC2=O)[C@@H]1O [levcromakalim] (10 µM)")
"upper bin"
>>> category("COC(=O)Nc1nc2cc(C(=O)c3ccc(F)cc3)ccc2[nH]1 [flubendazole] (10 µM)")
"upper bin"
>>> category("O=C(Oc1ccc([N+](=O)[O-])cc1)N1CCC(C(O)(c2ccc3c(c2)OCO3)c2ccc3c(c2)OCO3)CC1 (10 µM)")
"middle bin"
>>> category("CCCC(=O)Nc1ncnc2c1ncn2[C@@H]1O[C@@H]2COP(=O)(O)O[C@H]2[C@H]1OC(=O)CCC [bucladesine] (10 µM)")
"middle bin"

Please examine the following record next.
Request: # bin lookup: classify CC(O)(P(=O)(O)O)P(=O)(O)O [etidronic-acid] (10 µM) by its morphology score
Response: upper bin

---

# Tested on: Vero E6 infected with SARS-CoV-2
# ASSAY TEXT: inhibition of SARS-CoV-2 cytopathic effect; higher = more antiviral protection, active = above 15
# STUDY CONDITIONS: 8.33 nM; 48 h
Counter-ions that a name gives are not always drawn.
QUANTITY NAME: inhibition of SARS-CoV-2 cytopathic effect (%)
Give your result in % as a bare value.

// solved cases for inhibition of SARS-CoV-2 cytopathic effect follow
>>> quantitative_result("CCCCN(CC)c1nc(C)nc2c1c(C)c(C)n2-c1c(C)cc(C)cc1C")
-2.86
>>> quantitative_result("O=C1c2ccccc2CCC1CNCCc1ccc(O)cc1 (stereo unspecified)")
-1.18
>>> quantitative_result("O=C1C(=C(O)/C=C/c2ccc(O)cc2)C(=O)[C@@](O)([C@@H]2O[C@H](CO)[C@@H](O)[C@H](O)[C@H]2O)C(=O)[C@H]1[C@@H]1O[C@H](CO)[C@@H](O)[C@H](O)[C@H]1O")
-1.02

Request: Consider the molecule shown here: CC[C@@H](c1cccc(O)c1)[C@@H](C)CN(C)C [Tapentadol (hydrochloride)] What is its recorded inhibition of SARS-CoV-2 cytopathic effect?
Response: 1.05

Request: Okay, and Cc1cc(OCc2nnc(SC3CCCC3)n2-c2cccnc2)ccc1-c1ccc(S(C)(=O)=O)cc1 ?
Response: 0.31

---

Quick reference for inhibition of SARS-CoV-2 cytopathic effect among some molecules
# Tested on: Vero E6 infected with SARS-CoV-2
# ASSAY TEXT: inhibition of SARS-CoV-2 cytopathic effect; higher = more antiviral protection, active = above 15
# STUDY CONDITIONS: 8.33 nM; 48 h
Give your result in % as a bare value.

// solved cases for inhibition of SARS-CoV-2 cytopathic effect follow
>>> quantitative_result("COc1cc(Br)c(S(=O)(=O)Nc2ccc(Cl)c(O[C@@H]3CCN(C)C3)c2)cc1OC")
1.7
>>> quantitative_result("CCOC(=O)N1CSC[C@H]1C(=O)O [telmesteine]")
2.23
>>> quantitative_result("FC(F)c1nc2ccccc2n1-c1nc(N2CCOCC2)nc(N2CCOCC2)n1")
-0.7
>>> quantitative_result("CNC[C@H](O)[C@@H](O)[C@H](O)[C@H](O)CO [meglumine]")
-10.3
>>> quantitative_result("C[C@]12CCC(=O)C=C1CC[C@@H]1[C@@H]2CC[C@@]2(C)[C@H]1CC[C@]2(C)O [17-alpha-Methyltestosterone]")
1.3

Request: Consider the molecule shown here: O=C1/C(=C/c2ccccc2)C[C@@]2(O)[C@H]3Cc4ccc(O)c5c4[C@@]2(CCN3CC2CC2)[C@H]1O5 What is its recorded inhibition of SARS-CoV-2 cytopathic effect?
Response: 0.97

---

Quick reference for inhibition of SARS-CoV-2 cytopathic effect among some compounds
# Tested on: Vero E6 infected with SARS-CoV-2
# ASSAY TEXT: inhibition of SARS-CoV-2 cytopathic effect; higher = more antiviral protection, active = above 15
# STUDY CONDITIONS: 1 nM; 48 h
Give your result in % as a bare value.

// solved cases for inhibition of SARS-CoV-2 cytopathic effect follow
>>> quantitative_result("C[C@]12CC[C@H](O)C[C@H]1CC[C@@H]1[C@@H]2CC[C@]2(C)[C@@H](c3ccc(=O)oc3)C[C@H]3O[C@]132")
-0.2
>>> quantitative_result("N#Cc1cnc2cnc(NCc3cccnc3)cc2c1Nc1ccc(F)c(Cl)c1")
0.87
>>> quantitative_result("OCc1cc(C(O)CNCCCCCCOCCCCc2ccccc2)ccc1O (centres undefined)")
0.19
>>> quantitative_result("O=C(Nc1cc(C(F)(F)F)cc(C(F)(F)F)c1)Nc1c(Br)cc(Br)cc1-c1nnn[nH]1")
1.22
>>> quantitative_result("Nc1nc2c(ncn2COCCO)c(=O)[nH]1")
12.6
>>> quantitative_result("CCOc1ccccc1OCC1CNCCO1 (centres undefined)")
5.7
>>> quantitative_result("CCn1c(-c2nonc2N)nc2cncc(C(=O)N3CC[C@H](N)C3)c21")
0.81
>>> quantitative_result("CN1C(=O)/C(=C2/C(=O)Nc3ccccc32)c2ccccc21")
-1.49

Request: Consider the compound shown here: CCCC(=O)O[C@]1(C(=O)CCl)[C@@H](C)C[C@H]2[C@@H]3CCC4=CC(=O)C=C[C@]4(C)[C@@]3(F)C(=O)C[C@@]21C [clobetasone-butyrate] What is its recorded inhibition of SARS-CoV-2 cytopathic effect?
Response: -0.68

Request: Okay, and Cc1cccc(C)c1NC(=O)c1ccc(N)cc1 [ameltolide] ?
Response: 0.76

---

# Tested on: Vero E6 infected with SARS-CoV-2
# ASSAY TEXT: SARS-CoV-2 infection rate relative to infected DMSO; higher = more infection, active = 60 or less
# STUDY CONDITIONS: 24 h
QUANTITY NAME: SARS-CoV-2 infection rate (%)
Give your result in % as a bare value.

Request: Consider the molecule shown here: COc1ccc(Cl)c(Nc2nc3ccccc3nc2NS(=O)(=O)c2cccc(NC(=O)C(C)(C)N)c2)c1 [pilaralisib] (10 µM) What is its recorded SARS-CoV-2 infection rate?
Response: 103

Request: Okay, and CC(=O)CC(c1ccccc1)c1c(O)c2ccccc2oc1=O (configuration not stated) [warfarin] (10 µM) ?
Response: 106

Request: Okay, and C=C[C@@H]1C[C@]1(NC(=O)[C@@H]1C[C@@H]2CN1C(=O)[C@H](C(C)(C)C)NC(=O)O[C@@H]1C[C@H]1CCCCCc1nc3ccc(OC)cc3nc1O2)C(=O)NS(=O)(=O)C1CC1 [grazoprevir] (10 µM) ?
Response: 109

Request: Okay, and NC(=O)CC[C@H](N)C(=O)O [L-glutamine] (10 µM) ?
Response: 94

Request: Okay, and O=C(C[S+]([O-])Cc1ccco1)NC/C=C\COc1cc(CN2CCCCC2)ccn1 (configuration not stated) [lafutidine] (10 µM) ?
Response: 94

Request: Okay, and O=C(Nc1ccc([N+](=O)[O-])cc1Cl)c1cc(Cl)ccc1O [niclosamide] (0.833333 µM) ?
Response: 97

Request: Okay, and O=C(c1ccc(OCCCc2c[nH]cn2)cc1)C1CC1 [ciproxifan] (10 µM) ?
Response: 95.5

---

Quick reference for inhibition of SARS-CoV-2 cytopathic effect among some molecules
# Test system: Vero E6 infected with SARS-CoV-2
# ASSAY TEXT: inhibition of SARS-CoV-2 cytopathic effect; higher = more antiviral protection, active = above 15
# STUDY CONDITIONS: 833.33 nM; 48 h
Give your result in % as a bare value.

// solved cases for inhibition of SARS-CoV-2 cytopathic effect follow
>>> quantitative_result("CN(C)CCc1c[nH]c2ccc(C[C@H]3COC(=O)N3)cc12")
-2.13
>>> quantitative_result("O=C1Nc2cc(Cl)c(Cl)cc2N2CCNC[C@H]12")
0.92
>>> quantitative_result("O=C(O)CCCCC(=O)O")
-2.5
>>> quantitative_result("CC1=C(CC(=O)O)c2cc(F)ccc2/C1=C\\c1ccc(S(C)(=O)=O)cc1")
0.09
>>> quantitative_result("CC(C)c1cc(C(=O)N2Cc3ccc(CN4CCN(C)CC4)cc3C2)c(O)cc1O")
-1.1

Request: Consider the molecule shown here: C=CC1=C(C)c2cc3[nH]c(cc4nc(cc5[nH]c(cc1n2)c(C)c5CCC(=O)O)C(CCC(=O)O)=C4C)c(C)c3C=C What is its recorded inhibition of SARS-CoV-2 cytopathic effect?
Response: -0.31

Request: Okay, and C=CCOc1ccccc1OCC(O)CNC(C)C (configuration not stated) ?
Response: -0.79

Request: Okay, and CC1(C)O[C@@H]2[C@@H](CO[C@@]3(COS(N)(=O)=O)OC(C)(C)O[C@@H]23)O1 [topiramate] ?
Response: 0.74

Request: Okay, and CCC(=O)c1ccc(OCC(O)CN2CCN(c3ccccc3)CC2)cc1 (configuration not stated) ?
Response: -0.96

Request: Okay, and CC(C)n1nccc1-c1ncccc1COc1cccc(O)c1C=O ?
Response: 0.27

Request: Okay, and N=C1CCCN1Cc1[nH]c(=O)[nH]c(=O)c1Cl ?
Response: -1.37

Request: Okay, and CNCc1ccc(-c2cc(-c3nc(-c4ccc(S(=O)(=O)C(C)C)cc4)cnc3N)on2)cc1 ?
Response: 24.5

Request: Okay, and O=c1[nH]cnc2nc[nH]c12 ?
Response: 0.21

Request: Okay, and CC(=O)O[C@]1(C(C)=O)CC[C@H]2[C@@H]3C[C@H](C)C4=CC(=O)CC[C@]4(C)[C@H]3CC[C@@]21C [medroxyprogesterone-acetate] ?
Response: 2.58

Request: Okay, and CC(C)C[C@@H]1NC(=O)[C@@H](C(C)C)NC(=O)[C@@H]2CCCN2C(=O)[C@@H](CC(=O)O)NC(=O)[C@@H](Cc2c[nH]c3ccccc23)NC1=O ?
Response: -0.26

Request: Okay, and Cc1sc2c(c1C)C(c1ccc(Cl)cc1)=N[C@@H](CC(=O)Nc1ccc(OCCOCCOCCOCCNc3cccc4c3C(=O)N(C3CCC(=O)NC3=O)C4=O)cc1)c1nnc(C)n1-2 (some centres not stated) ?
Response: 1.39

Request: Okay, and CN1C[C@@H](NS(=O)(=O)N(C)C)C[C@@H]2c3cccc4c3c(cn4C)C[C@H]21 ?
Response: 0.39
